Entry source: the RNAGym collection of RNA variant scans (doi:10.1093/nar/gkz1192)

# self-cleavage listing for each entry below
B1: CPEB3 Ribozyme (parent)
chain: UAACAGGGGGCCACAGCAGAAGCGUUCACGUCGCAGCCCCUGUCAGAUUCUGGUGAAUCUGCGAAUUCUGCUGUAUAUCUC

Variants of: B1
procedure_summary: self-cleavage, relative activity (ratio to wild type); higher = more cleavage; in vitro, sequencing
Output: the number by itself.

Example entries begin here.
- C29U G52U: 0.39
- C38U U74C: 1.26

Proceed to the following item.
Reported self-cleavage for U1A A20U was 0.32
